- targetUnderTest: FXR (Homo sapiens, UniProt Q96RI1)
- Sequence (Q96RI1 262-486 limits assumed): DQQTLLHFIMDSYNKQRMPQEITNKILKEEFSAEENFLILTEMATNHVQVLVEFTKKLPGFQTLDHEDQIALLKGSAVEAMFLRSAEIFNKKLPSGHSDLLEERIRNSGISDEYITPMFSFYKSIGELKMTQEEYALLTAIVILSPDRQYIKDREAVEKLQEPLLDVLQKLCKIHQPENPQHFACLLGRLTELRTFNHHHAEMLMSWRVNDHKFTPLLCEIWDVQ
- assay: FXR antagonist test, luciferase reporter gene experiment against agonist GW4064
- Type: cell-based
- measurementParameters: antagonistic activity; HEK293 cells co-transfected with LBD(hFXR)-pbind and luciferase reporter; GW4064 300 nM
valueType: IC50

Recorded IC50, per entry:
INSERT INTO assay_data (compound, valuetype, testresult) VALUES
  ('CC(=O)O[C@@H]1CC[C@@]2(C)C(CC[C@]3(C)C2CCC2C4[C@H](C(C)C)CC[C@]4(C(=O)NCC(=O)O)CC[C@]23C)C1(C)C (stereo partly drawn) [Compound C2]', 'IC50', '6.31 µM'),
  ('CCC(=O)O[C@@H]1CC[C@@]2(C)C(CC[C@]3(C)C2CCC2C4[C@H](C(C)C)CC[C@]4(C(=O)NCC(=O)O)CC[C@]23C)C1(C)C (stereo partly drawn) [Compound C3]', 'IC50', '3.89 µM'),
  ('CCCC(=O)O[C@H]1CC[C@@]2(C)C(CC[C@]3(C)C2CCC2C4[C@H](C(C)C)CC[C@]4(C(=O)NCC(=O)O)CC[C@]23C)C1(C)C (stereo partly drawn) [Compound C12]', 'IC50', '8.27 µM'),
  ('CC(C)[C@@H]1CC[C@]2(C(=O)NCC(=O)O)CC[C@]3(C)C(CCC4[C@@]5(C)CC[C@@H](O)C(C)(C)C5CC[C@]43C)C12 (stereo partly drawn) [Compound C1]', 'IC50', '13.9 µM'),
  ('CCCC(=O)O[C@@H]1CC[C@@]2(C)C(CC[C@]3(C)C2CCC2C4[C@H](C(C)C)CC[C@]4(C(=O)NCC(=O)O)CC[C@]23C)C1(C)C (stereo partly drawn) [Compound C4]', 'IC50', '2.05 µM');

Given the compound CC(C)[C@@H]1CC[C@]2(C(=O)NCC(=O)O)CC[C@]3(C)C(CCC4[C@@]5(C)CC[C@@H](OC(=O)c6cccnc6)C(C)(C)C5CC[C@]43C)C12 (stereo partly drawn) [Compound C16] and test system FXR (Homo sapiens, UniProt Q96RI1), the measured IC50 is 5.67 µM
